ASSAYED TARGET: human IL-1β (human, UniProt P01584 117-269)
PROCEDURE SUMMARY: cell-based or functional assay
We begin with a simple list: items and their reported IL-1β IC50.
Express it in nM; write the number only.

Known results for binders:
BINDER	UNIT OF MEASURE	RESULT VALUE
ABT2-108-521/ABT1-141-25 hu IgG1/K wt (bispecific antibody, V domains shown) VH: EVQLLESGGGLVQPGGSLRLSCAASGFTFAEYTMMWVRQAPGKGLEWVSRIGQDGKNTYYADSVKGRFTISRDNSKNTLYLQMNSLRAEDTAVYYCAKYTGRILGHHLFDYWGQGTLVTVSS VL: DIQMTQSPSSLSASVGDRVTITCRASQWIQKQLAWYQQKPGKAPKLLIYSSSYLQSGVPSRFSGSGSGTDFTLTISSLQPEDFATYYCQQHLRVPMTFGQGTKVEIKR	nM	0.1
ABT2-108-521/ABT1-122-511 hu IgG1/K wt (bispecific antibody, V domains shown) VH: EVQLLESGGGLVQPGGSLRLSCAASGFTFAEYTMMWVRQAPGKGLEWVSRIGQDGKNTYYADSVKGRFTISRDNSKNTLYLQMNSLRAEDTAVYYCAKYTGRILGHHLFDYWGQGTLVTVSS VL: DIQMTQSPSSLSASVGDRVTITCRASQPIWTELNWYQQKPGKAPKLLIYGSSSLQRGVPSRFSGSGSGTDFTLTISSLQPEDFATYYCKQFAYFPATFGQGTKVEIKR	nM	0.16

Problem: Fill blank: measured IL-1β IC50 of the binder ABT2-65-166/ABT1-95-A5 hu IgG1mut 234, 235/K (bispecific antibody, V domains shown) VH: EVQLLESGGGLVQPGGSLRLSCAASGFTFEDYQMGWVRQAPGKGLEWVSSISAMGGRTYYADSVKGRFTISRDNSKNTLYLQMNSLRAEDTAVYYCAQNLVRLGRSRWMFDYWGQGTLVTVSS VL: DIQMTQSPSSLSASVGDRVTITCRASRTPVRNLRWYQQKPGKAPKLLIYSRSFLEPGVPSRFSGSGSGTDFTLTISSLQPEDFATYHCLQGYRWPPTFGQGTKVEIKR is ____.
Result: 0.145

The measurements presented in this section are drawn from patent US20090291081A1.
